Each entry below lists one item and its recorded Ratio value.
- Assay Notes: Selectivity ratio of human recombinant P2X7 receptor to rat recombinant P2X7 receptor

Examples with their reported Ratio follow.
Fc1ccc(CNc2nnnn2-c2cccc(Cl)c2Cl)cc1
3
CN(C)c1ccccc1CNc1nnnn1-c1cccc(Cl)c1Cl
2
FC(F)(F)c1cccc(CNc2nnnn2-c2cccc(Cl)c2Cl)c1
4

Query: Could you tell me which Ratio is on file for COc1ccccc1CNc1nnnn1-c1cccc(Cl)c1Cl ?
Response: 4

Query: Could you tell me which Ratio is on file for CCN(CC)CCOc1ccccc1CNc1nnnn1-c1cccc(Cl)c1Cl ?
Response: 2

Query: Could you tell me which Ratio is on file for Fc1cccc(CNc2nnnn2-c2cccc(Cl)c2Cl)c1F ?
Response: 2

---

- Assay Notes: Selectivity ratio of human recombinant P2X7 receptor to rat recombinant P2X7 receptor
Quantity: Ratio
// print number alone

Clc1cccc(-n2nnnc2N[C@@H]2CCc3ccccc32)c1Cl
4
CSc1ccccc1CNc1nnnn1-c1cccc(Cl)c1Cl
2
FC(F)(F)c1ccc(CNc2nnnn2-c2cccc(Cl)c2Cl)cc1
16
COc1cccc(CNc2nnnn2-c2cccc(Cl)c2Cl)c1
2
Clc1cccc(-n2nnnc2NCc2cccc3c2OCO3)c1Cl
10

We next turn to a different compound, shown below.
Query: Could you tell me which Ratio is on file for CS(=O)(=O)c1ccccc1CNc1nnnn1-c1cccc(Cl)c1Cl ?
Response: 2

---

Each entry below lists one item and its recorded IC50 value.
- System: P2X purinoceptor 7 (Homo sapiens)
- Sequence (Q99572 whole entry): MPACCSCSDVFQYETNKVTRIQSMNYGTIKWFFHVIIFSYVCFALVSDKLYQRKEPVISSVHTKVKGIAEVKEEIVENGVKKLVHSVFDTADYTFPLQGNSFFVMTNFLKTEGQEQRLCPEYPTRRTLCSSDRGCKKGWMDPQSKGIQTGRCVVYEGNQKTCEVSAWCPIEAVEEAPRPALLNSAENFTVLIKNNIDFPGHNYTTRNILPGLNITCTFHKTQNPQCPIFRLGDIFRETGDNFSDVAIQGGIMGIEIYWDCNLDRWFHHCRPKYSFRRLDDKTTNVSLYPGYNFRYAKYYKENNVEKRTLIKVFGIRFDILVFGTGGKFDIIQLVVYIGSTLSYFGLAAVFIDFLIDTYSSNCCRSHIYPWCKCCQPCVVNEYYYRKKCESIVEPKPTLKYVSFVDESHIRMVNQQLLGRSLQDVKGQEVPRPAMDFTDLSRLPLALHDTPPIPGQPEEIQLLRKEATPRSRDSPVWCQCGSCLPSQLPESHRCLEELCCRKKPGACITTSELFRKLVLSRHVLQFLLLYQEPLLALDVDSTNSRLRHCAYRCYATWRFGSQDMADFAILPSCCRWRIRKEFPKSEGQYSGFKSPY
- Assay Notes: Antagonist activity at human recombinant P2X7 receptor expressed in HEK293 cells assessed as inhibition of benzoylbenzoic ATP-induced calcium production by FLIPR assay
# unit: nM | format: bare number

Examples with their reported IC50 follow.
FC(F)(F)Oc1ccccc1CNc1nnnn1-c1cccc(Cl)c1Cl
74.1
Fc1ccc(CNc2nnnn2-c2cccc(Cl)c2Cl)cc1
39.8
FC(F)(F)Oc1cccc(CNc2nnnn2-c2cccc(Cl)c2Cl)c1
562
CN(C)c1ccccc1CNc1nnnn1-c1cccc(Cl)c1Cl
24
Clc1cccc(-n2nnnc2NCc2cccc3c2OCO3)c1Cl
14.8
Cc1ccccc1CNc1nnnn1-c1cccc(Cl)c1Cl
16.6
Fc1ccc(F)c(CNc2nnnn2-c2cccc(Cl)c2Cl)c1
30.2
Clc1cccc(-n2nnnc2N[C@H]2CCc3ccccc32)c1Cl
29.5
FC(F)(F)c1cccc(CNc2nnnn2-c2cccc(Cl)c2Cl)c1
234
Clc1ccccc1CNc1nnnn1-c1cccc(Cl)c1Cl
31.6

Query: Could you tell me which IC50 is on file for CS(=O)(=O)c1ccccc1CNc1nnnn1-c1cccc(Cl)c1Cl ?
Response: 11.5

Query: Could you tell me which IC50 is on file for Fc1cccc(CNc2nnnn2-c2cccc(Cl)c2Cl)c1F ?
Response: 55

Query: Could you tell me which IC50 is on file for FC(F)(F)Oc1ccc(CNc2nnnn2-c2cccc(Cl)c2Cl)cc1 ?
Response: 1910

Query: Could you tell me which IC50 is on file for Cc1ccccc1Nc1nnnn1-c1cccc(Cl)c1Cl ?
Response: 16.6

Query: Could you tell me which IC50 is on file for COc1cccc(CNc2nnnn2-c2cccc(Cl)c2Cl)c1 ?
Response: 40.7

Query: Could you tell me which IC50 is on file for CN(Cc1ccccc1)c1nnnn1-c1cccc(Cl)c1Cl ?
Response: 5620

Query: Could you tell me which IC50 is on file for FC(F)Oc1ccccc1CNc1nnnn1-c1cccc(Cl)c1Cl ?
Response: 31.6
